system: Rattus norvegicus; test: AUC in Sprague-Dawley rat at 1 mg/kg, iv; assay type: ADME, organism-based, Plasma; design: dose 1 mg/kg, route intravenous; details: in vivo
measured metric: AUC (µM·h)
One number for each entry, in µM·h.

* CC(c1ccccc1-c1ccc(Cl)cc1)N1CCC(N2CCc3c(ncnc3NS(=O)(=O)c3ccc(N[C@H](CCN(C)C)CSc4ccccc4)c(S(=O)(=O)C(F)(F)F)c3)C2)CC1 (stereo partly drawn) | 0.19

Now look at this entry.
**Q:** Dear colleague, please send me the reported AUC for `CN(C)CC[C@H](CSc1ccccc1)Nc1ccc(S(=O)(=O)Nc2ncnc3c2CCN(C2CCN(Cc4ccccc4-c4ccc(Cl)cc4)CC2)C3)cc1S(=O)(=O)C(F)(F)F` when you can.
**A:** 0.232

====

test: Oral bioavailability in Sprague-Dawley rat at 10 mg/kg; assay type: ADME, organism-based; details: in vivo
measured metric: bioavailability

**Q:** Answer with reported bioavailability of `CN(C)CC[C@H](CSc1ccccc1)Nc1ccc(S(=O)(=O)Nc2ncnc3c2CCN(C2CCN(Cc4ccccc4-c4ccc(Cl)cc4)CC2)C3)cc1S(=O)(=O)C(F)(F)F`
**A:** < 5%

====

Endpoint: Kd. System: Apoptosis regulator Bcl-2 (Homo sapiens, UniProt P10415). Items follow.
Sequence (P10415 whole entry): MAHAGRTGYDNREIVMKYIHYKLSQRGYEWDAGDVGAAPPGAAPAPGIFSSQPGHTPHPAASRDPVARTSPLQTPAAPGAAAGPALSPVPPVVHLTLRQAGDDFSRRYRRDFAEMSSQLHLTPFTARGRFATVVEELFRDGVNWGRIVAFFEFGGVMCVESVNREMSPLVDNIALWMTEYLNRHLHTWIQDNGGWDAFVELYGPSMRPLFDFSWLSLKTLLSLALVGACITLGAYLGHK
Answers are plain numbers, in nM.

Solved cases (5 shown):
* CN(C)CC[C@H](CSc1ccccc1)Nc1ccc(S(=O)(=O)NC2=NS(=O)(=O)c3cc(N4CCN(Cc5ccccc5-c5ccc(Cl)cc5)CC4)ccc32)cc1[N+](=O)[O-] | 14
* CN(C)CC[C@H](CSc1ccccc1)Nc1ccc(S(=O)(=O)Nc2ncnc3c2CCN(C2CCN(Cc4cc(F)ccc4-c4ccc(Cl)cc4)CC2)C3)cc1S(=O)(=O)C(F)(F)F | 3
* CN(C)CC[C@H](CSc1ccccc1)Nc1ccc(S(=O)(=O)Nc2nnc3cc(N4CCN(Cc5ccccc5-c5ccc(Cl)cc5)CC4)cnn23)cc1[N+](=O)[O-] | 8
* CN(C)CC[C@H](CSc1ccccc1)Nc1ccc(S(=O)(=O)Nc2ncnc3c2CCN(C2CCN(Cc4ccccc4-c4ccc(Cl)cc4)CC2)C3)cc1S(=O)(=O)C(F)(F)F | 7
* CC(c1ccccc1-c1ccc(Cl)cc1)N1CCC(N2CCc3c(ncnc3NS(=O)(=O)c3ccc(N[C@H](CCN(C)C)CSc4ccccc4)c(S(=O)(=O)C(F)(F)F)c3)C2)CC1 (stereo partly specified) | 2

Here's the next entry for you.
**Q:** // fetch Kd given entry `CN(C)CC[C@H](CSc1ccccc1)Nc1ccc(S(=O)(=O)Nc2nnc3n2CCN(C2CCN(Cc4ccccc4-c4ccc(Cl)cc4)CC2)CC3)cc1S(=O)(=O)C(F)(F)F`
**A:** 5

====

biological target: Apoptosis regulator Bcl-2 (Homo sapiens, UniProt P10415); test: Inhibition of Bcl-2/biotinylated BAK (unknown origin) interaction incubated for 1 hr by surface plasmon resonance analysis
measured metric: pIC50
Give bare numbers, as −log10 of the molar value.

* CN(C)CC[C@H](CSc1ccccc1)Nc1ccc(S(=O)(=O)Nc2nnc3n2CCN(C2CCN(Cc4ccccc4-c4ccc(Cl)cc4)CC2)CC3)cc1S(=O)(=O)C(F)(F)F | 7.60
* O=S(=O)(Nc1ncnc2c1CN(C1CCN(Cc3ccccc3-c3ccc(Cl)cc3)CC1)C2)c1ccc(N[C@H](CCN2CCOCC2)CSc2ccccc2)c(S(=O)(=O)C(F)(F)F)c1 | 6.13
* CN(C)CC[C@H](CSc1ccccc1)Nc1ccc(S(=O)(=O)Nc2ncnc3c2CCN(C2CCN(Cc4cc(F)ccc4-c4ccc(Cl)cc4)CC2)C3=O)cc1S(=O)(=O)C(F)(F)F | 6.85
* CN(C)CC[C@H](CSc1ccccc1)Nc1ccc(S(=O)(=O)Nc2cccc3cc(N4CCN(Cc5ccccc5-c5ccc(Cl)cc5)CC4)cnc23)cc1[N+](=O)[O-] | 7.17
* CN(C)CC[C@H](CSc1ccccc1)Nc1ccc(S(=O)(=O)Nc2ncnc3c2CCN(C2CCN(Cc4cc(F)ccc4-c4ccc(Cl)cc4)CC2)C3)cc1S(=O)(=O)C(F)(F)F | 7.48

Field: pIC50. Fill in for each record below.
1. CN(C)CC[C@H](CSc1ccccc1)Nc1ccc(S(=O)(=O)NC2=NS(=O)(=O)c3cc(N4CCN(Cc5ccccc5-c5ccc(Cl)cc5)CC4)ccc32)cc1[N+](=O)[O-]
2. CN(C)CC[C@H](CSc1ccccc1)Nc1ccc(S(=O)(=O)Nc2nc(Cl)nc3c2CCN(C2CCN(Cc4ccccc4-c4ccc(Cl)cc4)CC2)C3)cc1S(=O)(=O)C(F)(F)F
3. CN(C)CC[C@H](CSc1ccccc1)Nc1ccc(S(=O)(=O)Nc2ncnc3c2CCN(C2CCN(Cc4ccccc4-c4ccc(Cl)cc4)CC2)C3)cc1S(=O)(=O)C(F)(F)F
4. O=S(=O)(Nc1nnc2n1CCN(C1CCN(Cc3ccccc3-c3ccc(Cl)cc3)CC1)C2)c1ccc(N[C@H](CCN2CCOCC2)CSc2ccccc2)c(S(=O)(=O)C(F)(F)F)c1
5. CN(C)CC[C@H](CSc1ccccc1)Nc1ccc(S(=O)(=O)Nc2nn(C)c3nc(N4CCN(Cc5ccccc5-c5ccc(Cl)cc5)CC4)ncc23)cc1[N+](=O)[O-]

**A:**
7.77
7.49
7.72
6.50
5.07

I'm hoping you can list pIC50 for every compound here, please.
1. CN(C)CC[C@H](CSc1ccccc1)Nc1ccc(S(=O)(=O)Nc2nnc3cc(N4CCN(Cc5ccccc5-c5ccc(Cl)cc5)CC4)cnn23)cc1[N+](=O)[O-]
2. CN(C)CC[C@H](CSc1ccccc1)Nc1ccc(S(=O)(=O)Nc2nc(C(F)(F)F)nc3c2CCN(C2CCN(Cc4ccccc4-c4ccc(Cl)cc4)CC2)C3)cc1S(=O)(=O)C(F)(F)F

**A:**
[7.60, 7.34]

Data provenance is ChEMBL document CHEMBL2321763.
